Target: Acetylcholinesterase (Homo sapiens)
Experiment: Acetylcholinesterase (AChE) small molecule antagonists: colormetric cell-based qHTS assay (AID 1347395); further: nearly all actives have a fitted effect of over 30% in size
Conditions: SH-SY5Y cells AChE activity, colorimetric (Ellman); series mostly up to 115 µM
Inconclusive results are not listed. Calls of active or inactive are those of the source. The call rests on the fitted dose curve. Residues, ends and D or L forms follow the SMILES beside them.
Just give me one of these, please: T (active), F (inactive)

Enquiry: Per the records of this test, what outcome belongs to CCOc1ccccc1O ?
Return: F

Enquiry: Same question, CC(=O)/C=C/C=C1/C2CCC(C2)C1(C)C (stereo not drawn) this time
Return: T

Enquiry: Same question, CC(C)C(O)C(C)(C)CO (stereo not drawn) this time
Return: F

Enquiry: Same question, CN1CCN(CCC(=O)N2c3ccccc3Sc3ccc(C(F)(F)F)cc32)CC1 this time
Return: F

Enquiry: Same question, N=C(N)S(=O)O this time
Return: F

Enquiry: Same question, c1ccc(B(c2ccccc2)c2ccccc2)cc1 this time
Return: F

Enquiry: Same question, CCCCCCCCCCCCCCCC this time
Return: F

Enquiry: Same question, C[N+]1([O-])CCOCC1 this time
Return: F

Enquiry: Same question, CC(C)(C)c1cc(CCC(=O)NCCCCCCNC(=O)CCc2cc(C(C)(C)C)c(O)c(C(C)(C)C)c2)cc(C(C)(C)C)c1O this time
Return: F

Enquiry: Same question, CCCCCOC(=O)CCCC this time
Return: F

Enquiry: Same question, O=C1C=CC(=O)N1c1cccc(N2C(=O)C=CC2=O)c1 this time
Return: F

Enquiry: Same question, CC(CN=Cc1ccccc1O)N=Cc1ccccc1O (stereo not drawn) this time
Return: F

Enquiry: Same question, CC(=O)N[C@@H](CO)C(=O)N[C@@H](CC(=O)O)C(=O)N[C@@H](CCCCN)C(=O)N1CCC[C@H]1C(=O)O (Ac-SDKP-OH) this time
Return: F

These entries and their values trace back to PubChem BioAssay (Tox21).
